Listed next: entries and their corresponding pIC50.
System: 743489-274-T-PDC complex spheroid viability;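 note: spheroids exposed to compounds for 7 days before readout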
Test: Anticancer human tumor 743489-274-T-PDC patient-derived renal cell carcinoma cell line growth inhibition
Conditions: curve of first compound; second compound 10 µM
pIC50: −log10 of the molar value.
value_kind: pIC50

compound | experimental_system | result_value
NS(=O)(=O)OCC1CC(n2ccc3c(NC4CCc5ccccc54)ncnc32)CC1O (configuration not stated) + NC1CCC(NC2CC2c2ccccc2)CC1 | 743489-274-T-PDC complex spheroid viability | < 5.52
CC(C)c1c(-c2ccccc2)nc2c(C#N)c[nH]n2c1=O + NC1CCC(NC2CC2c2ccccc2)CC1 | 743489-274-T-PDC complex spheroid viability | < 5.00
Nc1ncn(C2CC(O)C(CO)O2)c(=O)n1 (configuration not stated) + NC1CC1c1ccc(-c2cccc(O)c2)cc1 | 743489-274-T-PDC complex spheroid viability | < 6.00
CCN(c1cc(-c2ccc(CN3CCOCC3)cc2)cc(C(=O)NCc2c(C)cc(C)[nH]c2=O)c1C)C1CCOCC1 + NC1CC1c1ccc(-c2cccc(O)c2)cc1 | 743489-274-T-PDC complex spheroid viability | < 5.52
COc1cc(Nc2ncc3c(n2)-c2ccc(Cl)cc2C(c2c(F)cccc2OC)=NC3)ccc1C(=O)O + NC1CC1c1ccc(-c2cccc(O)c2)cc1 | 743489-274-T-PDC complex spheroid viability | < 6.00
CC1COCCN1c1cc(-c2ccnn2C)c2ccnc(-c3ccn[nH]3)c2n1 (configuration not stated) + NC1CCC(NC2CC2c2ccccc2)CC1 | 743489-274-T-PDC complex spheroid viability | < 6.00
CC1(C)CCC(CN2CCN(c3ccc(C(=O)NS(=O)(=O)c4ccc(NCC5CCOCC5)c([N+](=O)[O-])c4)c(Oc4cnc5[nH]ccc5c4)c3)CC2)=C(c2ccc(Cl)cc2)C1 + NC1CCC(NC2CC2c2ccccc2)CC1 | 743489-274-T-PDC complex spheroid viability | < 5.00
CC[C@@]1(O)C(=O)OCc2c1cc1n(c2=O)Cc2cc3c(CN(C)C)c(O)ccc3nc2-1 + NC1CC1c1ccc(-c2cccc(O)c2)cc1 | 743489-274-T-PDC complex spheroid viability | < 7.00
Nc1ncn(C2CC(O)C(CO)S2)c(=O)n1 (configuration not stated) + NC1CCC(NC2CC2c2ccccc2)CC1 | 743489-274-T-PDC complex spheroid viability | < 6.52
Nc1ccccc1NC(=O)c1ccc(CNC(=O)OCc2cccnc2)cc1 + NC1CCC(NC2CC2c2ccccc2)CC1 | 743489-274-T-PDC complex spheroid viability | 5.90
CC(C)CC(NC(=O)C(Cc1ccccc1)NC(=O)c1cnccn1)B(O)O (configuration not stated) + NC1CC1c1ccc(-c2cccc(O)c2)cc1 | 743489-274-T-PDC complex spheroid viability | 8.17
CC[C@@]1(O)C(=O)OCc2c1cc1n(c2=O)Cc2cc3c(CN(C)C)c(O)ccc3nc2-1 + NC1CCC(NC2CC2c2ccccc2)CC1 | 743489-274-T-PDC complex spheroid viability | < 7.00
CCc1c2c(nc3ccc(O)cc13)-c1cc3c(c(=O)n1C2)COC(=O)[C@]3(O)CC + NC1CCC(NC2CC2c2ccccc2)CC1 | 743489-274-T-PDC complex spheroid viability | 6.67
Cn1ncnc1C1c2n[nH]c(=O)c3cc(F)cc(c23)NC1c1ccc(F)cc1 (configuration not stated) + NC1CCC(NC2CC2c2ccccc2)CC1 | 743489-274-T-PDC complex spheroid viability | < 7.00
O=C(C=Cn1cnc(-c2cc(C(F)(F)F)cc(C(F)(F)F)c2)n1)NNc1cnccn1 + NC1CC1c1ccc(-c2cccc(O)c2)cc1 | 743489-274-T-PDC complex spheroid viability | < 6.00
CC(C)CC(NC(=O)CNC(=O)c1cc(Cl)ccc1Cl)B1OC(=O)CC(CC(=O)O)(C(=O)O)O1 (configuration not stated) + NC1CCC(NC2CC2c2ccccc2)CC1 | 743489-274-T-PDC complex spheroid viability | 7.06
O=C(c1cc(Cc2n[nH]c(=O)c3ccccc23)ccc1F)N1CCN(C(=O)C2CC2)CC1 + NC1CCC(NC2CC2c2ccccc2)CC1 | 743489-274-T-PDC complex spheroid viability | < 5.00
